Target: T1, cyno activated protein C (cyno (monkey))
T1 construct: also called cyno aPC; cyno APC
Assay: SPR (Biacore), 1:1 binding model
pKd values for the binders below.
Note: pKd values are expressed as the negative base-10 logarithm of concentration in M.

// below: answered binders
1) Hu1573-3 (antibody, V domains shown, Humanized IgG, human gamma 1 / kappa constant regions by vectors pCP-hCg1 and pCP-hck; also called H1573VH.1B + H1573Vk.2) VH: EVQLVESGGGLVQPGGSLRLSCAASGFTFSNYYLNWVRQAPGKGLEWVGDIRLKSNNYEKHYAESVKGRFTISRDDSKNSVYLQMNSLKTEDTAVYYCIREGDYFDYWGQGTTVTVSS VL: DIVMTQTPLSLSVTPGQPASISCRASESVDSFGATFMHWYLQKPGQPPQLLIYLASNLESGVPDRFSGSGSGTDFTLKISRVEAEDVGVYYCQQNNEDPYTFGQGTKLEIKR :: 7.85
2) Hu1573-9 (antibody, V domains shown, Humanized IgG, human gamma 1 / kappa constant regions by vectors pCP-hCg1 and pCP-hck; also called H1573VH.1D + H1573Vk.2) VH: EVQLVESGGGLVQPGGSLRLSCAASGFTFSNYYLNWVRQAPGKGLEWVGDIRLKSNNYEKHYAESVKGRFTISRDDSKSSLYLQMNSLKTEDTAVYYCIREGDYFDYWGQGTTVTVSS VL: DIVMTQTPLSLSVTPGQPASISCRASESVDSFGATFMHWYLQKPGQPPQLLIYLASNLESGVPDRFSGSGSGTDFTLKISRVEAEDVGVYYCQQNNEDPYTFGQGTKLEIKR :: 7.82

// below: pKd requested for another binder
For this binder ( Hu1573-15 (antibody, V domains shown, Humanized IgG, human gamma 1 / kappa constant regions by vectors pCP-hCg1 and pCP-hck; also called H1573VH.1F + H1573Vk.2) VH: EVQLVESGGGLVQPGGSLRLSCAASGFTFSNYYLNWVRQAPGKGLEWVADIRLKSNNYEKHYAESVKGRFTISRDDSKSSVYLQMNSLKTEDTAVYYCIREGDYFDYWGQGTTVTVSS VL: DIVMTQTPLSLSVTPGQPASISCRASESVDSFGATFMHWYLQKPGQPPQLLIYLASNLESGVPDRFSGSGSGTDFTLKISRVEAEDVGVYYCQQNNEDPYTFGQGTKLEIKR ), measured pKd is 7.69
